Data credit: paper PMC6009913

Target: FAAH (Rattus norvegicus)
Construct: using rat brain homogenates as enzyme source; from tissue; host or cells: rat brain homogenate
Sequence (P97612 1-579): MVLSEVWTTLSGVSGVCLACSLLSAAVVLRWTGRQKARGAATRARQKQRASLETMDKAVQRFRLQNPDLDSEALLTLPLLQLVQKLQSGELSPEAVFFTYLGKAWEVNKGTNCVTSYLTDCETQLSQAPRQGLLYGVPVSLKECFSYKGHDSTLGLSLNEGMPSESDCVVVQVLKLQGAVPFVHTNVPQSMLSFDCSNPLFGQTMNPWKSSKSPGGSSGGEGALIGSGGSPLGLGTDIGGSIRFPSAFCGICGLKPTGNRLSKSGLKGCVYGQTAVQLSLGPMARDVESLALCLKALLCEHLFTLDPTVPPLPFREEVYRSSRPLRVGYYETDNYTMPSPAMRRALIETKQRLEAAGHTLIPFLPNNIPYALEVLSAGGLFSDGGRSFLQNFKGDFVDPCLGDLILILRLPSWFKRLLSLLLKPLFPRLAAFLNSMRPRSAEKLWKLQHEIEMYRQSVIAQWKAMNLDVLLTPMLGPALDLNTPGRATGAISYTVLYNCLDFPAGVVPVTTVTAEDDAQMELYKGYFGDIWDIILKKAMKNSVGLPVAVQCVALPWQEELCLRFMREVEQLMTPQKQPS
Assay: FAAH inhibition, hydrolysis of 0.5 µM [3H]AEA in rat brain homogenates
Format: biochemical
Conditions: maximal attainable inhibition according to preferred curve fit, mean ± standard error; no pre-incubation
value_type: Maximum inhibition (%)
All answers are understood in %, so give the number only.

Below are worked cases with known answers.
>>> print(df.to_string())
                                   compound  recorded_number
0  CC(C)c1ccc(OCC(=O)Nc2cccc(-c3nc4ncccc4o3)c2)cc1 [4e]              100
1  O=C(COc1ccc(-c2ccccc2)cc1)Nc1ccc(-c2nc3ncccc3[nH]2)cc1 [4r]               80
2  CCC/C=C/COCC(=O)Nc1cccc(-c2nc3ncccc3[nH]2)c1 [4q]              100

stdin: Recorded Maximum inhibition of O=C(COc1ccc(-c2ccccc2)cc1)Nc1ccccc1-c1nc2ncccc2[nH]1 [4l] , please.
stdout: 70

stdin: Any idea what its Maximum inhibition is? The compound is O=C(COc1ccc(C2CCCCC2)cc1)Nc1cccc(-c2nc3ncccc3[nH]2)c1 [4p]
stdout: 100

----------
Form field: pIC50 (one value per entry).
target: FAAH (Rattus norvegicus); construct: using rat brain homogenates as enzyme source; from tissue; host or cells: rat brain homogenate; experiment: FAAH inhibition, hydrolysis of 0.5 µM [3H]AEA in rat brain homogenates; format: biochemical; details: 60-min pre-incubation with enzyme
The value called pIC50 is obtained by taking minus log10 of the concentration in mol/L.

>>> df
                           structure_string     target_or_test_system  value_type  recorded_number
0  CCC/C=C/COCC(=O)Nc1ccc(-c2nc3ncccc3[nH]2)cc1  FAAH (Rattus norvegicus)       pIC50             4.37

stdin: Given O=C(COc1ccc(-c2ccccc2)cc1)Nc1ccc(-c2nc3ncccc3o2)cc1 , state its recorded pIC50.
stdout: 6.55

----------
target: FAAH (Rattus norvegicus); construct: using rat brain homogenates as enzyme source; from tissue; host or cells: rat brain homogenate; assay: FAAH inhibition, hydrolysis of 0.5 µM [3H]AEA in rat brain homogenates; type: biochemical; conditions: maximal attainable inhibition according to preferred curve fit, mean ± standard error; no pre-incubation
Here the recorded Maximum inhibition is given for each entry.
Write it as a number; the unit % goes unstated.

Some compounds with recorded Maximum inhibition:
>>> print(df.to_string())
                                   compound     target_or_test_system  unit  recorded_number
0  O=C(COc1ccc(C2CCCCC2)cc1)Nc1ccc(-c2nc3ncccc3o2)cc1 [4j]  FAAH (Rattus norvegicus)     %               19
1  CCC/C=C/COCC(=O)Nc1ccc(-c2nc3ncccc3[nH]2)cc1 [4t]  FAAH (Rattus norvegicus)     %              100
2  CCC/C=C/COCC(=O)Nc1ccc(-c2nc3ncccc3o2)cc1 [4k]  FAAH (Rattus norvegicus)     %               46
3  CCC/C=C/COCC(=O)Nc1ccccc1-c1nc2ncccc2o1 [4c]  FAAH (Rattus norvegicus)     %                7

API: the following record is the query input.
stdin: # Maximum inhibition lookup, item O=C(COc1ccc(C2CCCCC2)cc1)Nc1cccc(-c2nc3ncccc3o2)c1 [4g]
stdout: 100

----------
assay: thermodynamic aqueous solubility in phosphate-buffered saline; type: physicochemical; details: aqueous buffer, thermodynamic from solid; phosphate-buffered saline 10 mM, pH 7.48, 37 °C
Item-by-item account of solubility thermodynamic
API: value field is a number in µM; no unit string.

Below: 2 molecules and their reported solubility thermodynamic.
                           structure_string  recorded_number
0  O=C(COc1ccc(-c2ccccc2)cc1)Nc1ccc(-c2nc3ncccc3[nH]2)cc1               20
1  O=C(COc1ccc(-c2ccccc2)cc1)Nc1ccc(-c2nc3ncccc3o2)cc1               18

# next molecule below
stdin: # solubility thermodynamic lookup, item O=C(COc1ccc(C2CCCCC2)cc1)Nc1ccc(-c2nc3ncccc3[nH]2)cc1
stdout: 3

----------
Molecular target: FAAH (Rattus norvegicus, UniProt P97612)
Construct: using rat brain homogenates as enzyme source; from tissue; host or cells: rat brain homogenate
Sequence (P97612 1-579): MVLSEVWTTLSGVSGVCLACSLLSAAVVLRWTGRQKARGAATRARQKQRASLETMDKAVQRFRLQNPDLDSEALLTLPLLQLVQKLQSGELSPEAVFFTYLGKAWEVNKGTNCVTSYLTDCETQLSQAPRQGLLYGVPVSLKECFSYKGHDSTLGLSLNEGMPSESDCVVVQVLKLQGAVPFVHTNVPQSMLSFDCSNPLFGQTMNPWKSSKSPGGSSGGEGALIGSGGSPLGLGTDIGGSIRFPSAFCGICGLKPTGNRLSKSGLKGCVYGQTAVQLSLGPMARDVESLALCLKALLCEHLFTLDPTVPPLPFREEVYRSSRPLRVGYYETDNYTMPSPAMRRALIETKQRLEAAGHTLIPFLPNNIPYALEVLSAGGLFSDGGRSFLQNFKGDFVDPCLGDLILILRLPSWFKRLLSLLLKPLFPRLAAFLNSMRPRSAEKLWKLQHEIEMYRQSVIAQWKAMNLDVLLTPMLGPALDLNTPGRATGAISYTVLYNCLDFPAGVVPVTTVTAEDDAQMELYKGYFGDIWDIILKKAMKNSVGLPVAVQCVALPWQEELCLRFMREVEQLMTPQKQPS
Assay: FAAH inhibition, hydrolysis of 0.5 µM [3H]AEA in rat brain homogenates
Assay type: biochemical
Conditions: maximal attainable inhibition according to preferred curve fit, mean ± standard error; no pre-incubation
Classify by measured Maximum inhibition: Met if it is equal to or exceeds 60%, Not met if it is smaller.

These recorded examples may help you get a feel for the data.
>>> print(df.to_string())
                           structure_string  assigned_label
0  CCC/C=C/COCC(=O)Nc1ccccc1-c1nc2ncccc2[nH]1             Met
1  O=C(COc1ccc(C2CCCCC2)cc1)Nc1ccc(-c2nc3ncccc3[nH]2)cc1             Met
2  O=C(COc1ccc(C2CCCCC2)cc1)Nc1ccccc1-c1nc2ncccc2o1         Not met

stdin: Quick check, Maximum inhibition >= 60%? O=C(COc1ccc(-c2ccccc2)cc1)Nc1cccc(-c2nc3ncccc3[nH]2)c1
stdout: Met

stdin: Given CCC/C=C/COCC(=O)Nc1cccc(-c2nc3ncccc3o2)c1 , state whether its Maximum inhibition is at least 60%.
stdout: Met

stdin: API: above_or_equal(metric=Maximum inhibition, cutoff=60%) for item O=C(COc1ccc(-c2ccccc2)cc1)Nc1ccccc1-c1nc2ncccc2o1
stdout: Not met

stdin: Tell me whether Maximum inhibition is at least 60% here: O=C(COc1ccc(C2CCCCC2)cc1)Nc1ccccc1-c1nc2ncccc2[nH]1
stdout: Met

stdin: Answer whether Maximum inhibition of O=C(COc1ccc(-c2ccccc2)cc1)Nc1ccc(-c2nc3ncccc3o2)cc1 is greater than or equal to 60%.
stdout: Met

stdin: Say whether O=C(COc1ccccc1)Nc1cccc(-c2nc3ncccc3o2)c1 shows Maximum inhibition of 60% or more.
stdout: Met
